Target: T1, human CD200R1 (Homo sapiens, UniProt Q8TD46)
T1 sequence (Q8TD46 25-348): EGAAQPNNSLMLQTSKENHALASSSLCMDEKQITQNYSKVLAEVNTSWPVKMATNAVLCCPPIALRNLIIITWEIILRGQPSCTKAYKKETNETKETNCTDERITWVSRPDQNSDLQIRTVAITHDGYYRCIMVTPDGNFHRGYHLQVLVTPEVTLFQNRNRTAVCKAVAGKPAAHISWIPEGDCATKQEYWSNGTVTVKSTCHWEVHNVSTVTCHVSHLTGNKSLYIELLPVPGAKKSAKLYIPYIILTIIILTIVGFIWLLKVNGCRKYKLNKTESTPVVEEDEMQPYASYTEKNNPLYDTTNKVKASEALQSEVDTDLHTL
Test: SPR binding kinetics, human CD200R1
Conditions: hCD200R1-his captured on anti-His CM5 chip, 1:1 Langmuir fit
Measured Ka by item
All answers are understood in M⁻¹ s⁻¹, so give the number only.

[
  {
    "MOLECULE": "P001009v4: P001009 variant, LC N31 substituted with K; VH SEQ ID NO: 79 (antibody, V domains shown) VH: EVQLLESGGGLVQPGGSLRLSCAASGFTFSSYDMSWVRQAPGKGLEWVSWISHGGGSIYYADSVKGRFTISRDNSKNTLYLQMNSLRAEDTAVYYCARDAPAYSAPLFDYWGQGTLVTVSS VL: QSVLTQPPSASGTPGQRVTISCSGSSSNIGNKAVNWYQQLPGTAPKLLIYYDSNRPSGVPDRFSGSKSGTSASLAISGLRSEDEADYYCAAWDDSLSGYVFGGGTKLTVL",
    "QUANTITATIVE READOUT": "6.74e+06"
  },
  {
    "MOLECULE": "P001009v1: P001009 variant, LC S52 and LC S94 substituted with K and R; VH SEQ ID NO: 79 (antibody, V domains shown) VH: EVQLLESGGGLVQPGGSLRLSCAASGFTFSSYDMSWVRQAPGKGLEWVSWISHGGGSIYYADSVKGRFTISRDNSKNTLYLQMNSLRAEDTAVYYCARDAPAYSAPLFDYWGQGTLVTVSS VL: QSVLTQPPSASGTPGQRVTISCSGSSSNIGNNAVNWYQQLPGTAPKLLIYYDKNRPSGVPDRFSGSKSGTSASLAISGLRSEDEADYYCAAWDDRLSGYVFGGGTKLTVL",
    "QUANTITATIVE READOUT": "4.77e+06"
  }
]

I am curious: what Ka value has been reported for P001009: phage display anti-CD200R1 clone; VH SEQ ID NO: 79, VL SEQ ID NO: 94 (antibody, V domains shown) VH: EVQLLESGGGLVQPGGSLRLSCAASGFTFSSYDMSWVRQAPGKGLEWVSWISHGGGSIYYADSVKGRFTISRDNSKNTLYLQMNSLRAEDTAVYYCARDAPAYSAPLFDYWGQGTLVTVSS VL: QSVLTQPPSASGTPGQRVTISCSGSSSNIGNNAVNWYQQLPGTAPKLLIYYDSNRPSGVPDRFSGSKSGTSASLAISGLRSEDEADYYCAAWDDSLSGYVFGGGTKLTVL ? 2.81e+06
